Reference for the values: patent US20250197407A1

target: SOS1/KRAS WT (Homo sapiens (Human), UniProt Q07889)
Sequence (Q07889 564-1049): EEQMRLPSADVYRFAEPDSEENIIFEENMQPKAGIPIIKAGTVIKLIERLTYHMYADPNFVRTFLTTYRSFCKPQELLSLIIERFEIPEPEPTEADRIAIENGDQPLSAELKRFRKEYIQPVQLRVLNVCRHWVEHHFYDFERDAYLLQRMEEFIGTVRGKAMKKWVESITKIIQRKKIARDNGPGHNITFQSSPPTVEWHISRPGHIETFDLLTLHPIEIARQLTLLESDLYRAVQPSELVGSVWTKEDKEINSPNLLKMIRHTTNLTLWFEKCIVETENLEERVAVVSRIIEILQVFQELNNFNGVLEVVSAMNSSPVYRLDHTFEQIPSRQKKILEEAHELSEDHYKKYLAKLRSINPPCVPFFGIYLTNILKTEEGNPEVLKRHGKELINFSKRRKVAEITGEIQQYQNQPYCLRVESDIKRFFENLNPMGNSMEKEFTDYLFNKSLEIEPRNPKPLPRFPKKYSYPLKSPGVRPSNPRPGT
measurement-description: SOS1/KRAS WT HTRF binding assay (FRET-based protein-protein interaction)
condition-description: inhibition of His6-SOS1 (aa564-1049, 40 nM) binding to GST-KRAS-WT (aa1-188, 40 nM); at least two independent replicates; read-out: SOS1/KRAS WT HTRF Binding assay pIC50 (converted)
Exercise: state measured IC50 for each of the compounds provided.
Form entry: value (nM) — number only.

// query I have this compound here, COCC1(C)C(=O)N(C2CC2)c2cc3c(N[C@H](C)c4cccc(C(F)(F)CO)c4F)nnc(C)c3cc21 (stereo partly shown) , and I need its recorded IC50.
// result 6.61

// query Same question, Cc1nnc(N[C@H](C)c2cccc(C(F)(F)C(C)(C)O)c2F)c2cc3c(cc12)n(C)c(=O)n3C1CC1 this time
// result 9.77

// query Same question, Cc1c([C@@H](C)Nc2nnc(C)c3cc4c(cc23)C(C)(C)C(=O)N4C)cccc1C(F)(F)CO this time
// result 13.2

// query Same question, Cc1c(-c2cncs2)cccc1[C@@H](C)Nc1nnc(C)c2cc3c(cc12)n(C)c(=O)n3C this time
// result 17.8

---

target: SOS1/KRAS WT (Homo sapiens (Human), UniProt Q07889)
measurement-description: SOS1/KRAS WT HTRF binding assay (FRET-based protein-protein interaction)
condition-description: inhibition of His6-SOS1 (aa564-1049, 40 nM) binding to GST-KRAS-WT (aa1-188, 40 nM); at least two independent replicates; read-out: SOS1/KRAS WT HTRF Binding assay pIC50 (converted)
measure-name: IC50 (µM)
Form entry: value (µM) — number only.

// query Identify the measured IC50 of COC1(C)C(=O)N(C)c2cc3c(C)nnc(N[C@H](C)c4cccc(C(F)(F)CO)c4)c3cc21 (some centres unmarked) for SOS1/KRAS WT (Homo sapiens (Human), UniProt Q07889).
// result 0.0166

// query Same question, Cc1c([C@@H](C)Nc2nnc(C)c3cc4c(cc23)N(C(C)C)C(=O)C4(C)C)cccc1C(F)(F)C(C)(C)O this time
// result 0.00617

// query Same question, Cc1nnc(N[C@H](C)c2cccc(C(F)(F)CO)c2F)c2cc3c(cc12)C(C)(C)C(=O)N3C this time
// result 0.00708

// query Same question, Cc1nnc(N[C@H](C)c2cccc(C(F)(F)C(C)(C)O)c2)c2cc3c(cc12)N(C)C(=O)C3(C)C this time
// result 0.0135

// query Same question, Cc1nnc(N[C@H](C)c2cccc(C(F)(F)C(C)(C)O)c2)c2cc3c(cc12)C(C)(C)C(=O)N3C this time
// result 0.0112

// query Same question, CCC1(OC)C(=O)N(C)c2cc3c(C)nnc(N[C@H](C)c4cccc(C(F)(F)CO)c4C)c3cc21 (some centres unmarked) this time
// result 0.0195

// query Same question, Cc1nnc(N[C@H](C)c2cccc(C(F)(F)F)c2)c2cc3c(cc12)OC1(CC1)C(=O)N3C(C)C this time
// result 0.0631

// query Same question, COC1(C)C(=O)N(C)c2cc3c(N[C@H](C)c4cc(F)cc(C(F)(F)C(C)(C)O)c4)nnc(C)c3cc21 (some centres unmarked) this time
// result 0.0145

// query Same question, Cc1nnc(N[C@H](C)c2cccc(C(F)(F)CO)c2F)c2cc3c(cc12)n(C)c(=O)n3C this time
// result 0.0174

// query Same question, Cc1c([C@@H](C)Nc2nnc(C)c3cc4c(cc23)n(C(C)C)c(=O)n4C)cccc1C(F)(F)CO this time
// result 0.00832

// query Same question, Cc1nnc(N[C@H](C)c2cc(F)cc(C(F)(F)CO)c2)c2cc3c(cc12)C1(CCCC1)C(=O)N3C this time
// result 0.0219

// query Same question, Cc1nnc(N[C@H](C)c2cccc(C(F)(F)C(C)(C)O)c2)c2cc3c(cc12)N(C)C(=O)C31CCOCC1 this time
// result 0.00661

// query Same question, CCOC1(C)C(=O)N(C2CC2)c2cc3c(N[C@H](C)c4cccc(C(F)(F)CO)c4C)nnc(C)c3cc21 (some centres unmarked) this time
// result 0.0126

// query Same question, Cc1c([C@@H](C)Nc2nnc(C)c3cc4c(cc23)N(C2CC2)C(=O)C4(C)C)cccc1C(F)(F)C(C)(C)O this time
// result 0.0129

---

target: SOS1/KRAS WT (Homo sapiens (Human))
measurement-description: SOS1/KRAS WT HTRF binding assay (FRET-based protein-protein interaction)
condition-description: inhibition of His6-SOS1 (aa564-1049, 40 nM) binding to GST-KRAS-WT (aa1-188, 40 nM); at least two independent replicates; read-out: SOS1/KRAS WT HTRF Binding assay pIC50 (converted)
measure-name: IC50 (nM)
Form entry: value (nM) — number only.

// query I have this compound here, Cc1nnc(N[C@H](C)c2cccc(C(F)(F)CO)c2)c2cc3c(cc12)C1(CCOCC1)C(=O)N3C , and I need its recorded IC50.
// result 7.76

// query Same question, Cc1c([C@@H](C)Nc2nnc(C)c3cc4c(cc23)N(C)C(=O)C4(C)C)cccc1C(F)(F)C(C)(C)O this time
// result 10.5

// query Same question, Cc1c([C@@H](C)Nc2nnc(C)c3cc4c(cc23)N(C2CC2)C(=O)C4(C)C)cccc1C(F)(F)CO this time
// result 8.51

// query Same question, CCOC1(C)C(=O)N(C)c2cc3c(C)nnc(N[C@H](C)c4cccc(C(F)(F)CO)c4)c3cc21 (stereo partly shown) this time
// result 20.9

// query Same question, CCOC1(C)C(=O)N(C)c2cc3c(C)nnc(N[C@H](C)c4cccc(C(F)(F)CO)c4F)c3cc21 (stereo partly shown) this time
// result 18.2

// query Same question, Cc1nnc(N[C@H](C)c2cccc(C(F)(F)F)c2)c2cc3c(cc12)n(C)c(=O)n3C this time
// result 20.9

// query Same question, COCCn1c(=O)n(C)c2cc3c(C)nnc(N[C@H](C)c4cccc(C(F)(F)CO)c4F)c3cc21 this time
// result 10.5

---

target: SOS1/KRAS WT (Homo sapiens (Human), UniProt Q07889)
measurement-description: SOS1/KRAS WT HTRF binding assay (FRET-based protein-protein interaction)
condition-description: inhibition of His6-SOS1 (aa564-1049, 40 nM) binding to GST-KRAS-WT (aa1-188, 40 nM); at least two independent replicates; read-out: SOS1/KRAS WT HTRF Binding assay pIC50 (converted)
Exercise: state measured IC50 for each of the compounds provided.
Form entry: value (nM) — number only.

// query I have this compound here, Cc1c(C#N)cccc1[C@@H](C)Nc1nnc(C)c2cc3c(cc12)n(C(C)(C)C)c(=O)n3C , and I need its recorded IC50.
// result 11.2

// query Same question, Cc1nnc(N[C@H](C)c2cccc(C(F)(F)C(C)(C)O)c2)c2cc3c(cc12)n(C)c(=O)n3C1(C)CC1 this time
// result 7.94

// query Same question, Cc1nnc(N[C@H](C)c2cccc(C(F)F)c2)c2cc3c(cc12)n(C)c(=O)n3C(C)(C)C this time
// result 11.7

// query Same question, Cc1nnc(N[C@H](C)c2cccc(C(F)(F)C(C)(C)O)c2)c2cc3c(cc12)C1(CCOCC1)C(=O)N3C this time
// result 8.91

// query Same question, COC1(C)C(=O)N(C)c2cc3c(N[C@H](C)c4cc(F)cc(C(F)(F)CO)c4C)nnc(C)c3cc21 (some centres unmarked) this time
// result 11

// query Same question, Cc1c(C(F)F)cccc1[C@@H](C)Nc1nnc(C)c2cc3c(cc12)n(C1CC1)c(=O)n3C this time
// result 11

// query Same question, COC1(C)C(=O)N(C)c2cc3c(N[C@H](C)c4cc(F)cc(C(F)(F)C(C)(C)O)c4C)nnc(C)c3cc21 (some centres unmarked) this time
// result 13.2

// query Same question, CCOC1(C)C(=O)N(C)c2cc3c(N[C@H](C)c4cccc(C(F)(F)CO)c4F)nnc(C)c3cc21 (some centres unmarked) this time
// result 10

---

target: SOS1/KRAS WT (Homo sapiens (Human), UniProt Q07889)
measurement-description: SOS1/KRAS WT HTRF binding assay (FRET-based protein-protein interaction)
condition-description: inhibition of His6-SOS1 (aa564-1049, 40 nM) binding to GST-KRAS-WT (aa1-188, 40 nM); at least two independent replicates; read-out: SOS1/KRAS WT HTRF Binding assay pIC50 (converted)
// classify: if (IC50 < 10 nM) true else false

// query Find out if reported IC50 for Cc1nnc(N[C@H](C)c2cccc(C(F)F)c2F)c2cc3c(cc12)n(C)c(=O)n3[C@H]1CCOC1 is less than 10 nM
// result false

// query Same question, CCOC1(C)C(=O)N(C2CC2)c2cc3c(N[C@H](C)c4cccc(C(F)(F)CO)c4F)nnc(C)c3cc21 (stereo partly shown) this time
// result false

// query Same question, COCCn1c(=O)n(C)c2cc3c(C)nnc(N[C@H](C)c4cccc(C(F)(F)F)c4)c3cc21 this time
// result false

// query Same question, Cc1nnc(N[C@H](C)c2cccc(C(F)(F)C(C)(C)O)c2)c2cc3c(cc12)n(C)c(=O)n3C(C)C this time
// result true

// query Same question, Cc1nnc(N[C@H](C)c2cccc(C(F)(F)F)c2)c2cc3c(cc12)C(C)(C)C(=O)N3C this time
// result false
